Cited source for all entries: patent US11357779B2

- method-notes: Plasma concentration versus time of Compound I and metabolite Compound III in patients dosed QD or BID with Form B of Compound II plus fulvestrant
- Format: in vivo, human
- condition-context: human, plasma, oral, 300 mg, 300 mg QD of Form B, Day 29, 10.0 h, Median; read-out: Compound I Concentration

input-smiles	unit-descriptor	concentration at 10 h
CC(C)N1CCN(c2ccc(Nc3ncc4cc5n(c4n3)C3(CCCCC3)CNC5=O)nc2)CC1	ng/mL	18.9

====

- method-notes: Plasma concentration versus time of Compound I and metabolite Compound III in patients dosed QD or BID with Form B of Compound II plus fulvestrant
- Format: in vivo, human
- condition-context: human, plasma, oral, 400 mg, 400 mg QD of Form B, Day 1, 2.0 h, Mean; read-out: Compound I Concentration
observable: concentration at 2 h (ng/mL)

input-smiles	recorded-measurement
CC(C)N1CCN(c2ccc(Nc3ncc4cc5n(c4n3)C3(CCCCC3)CNC5=O)nc2)CC1	5.67
